biological target: Left-right determination factor 2 (Homo sapiens) (UniProt O00292); test: LEFTY2 binders on small-molecule microarrays, primary screen, biochemical, small-molecule microarray, 635 nm fluorescence scan (AID 1110); conditions: LEFTY2 binding, higher = more signal
Sequence (O00292 whole entry, looked up): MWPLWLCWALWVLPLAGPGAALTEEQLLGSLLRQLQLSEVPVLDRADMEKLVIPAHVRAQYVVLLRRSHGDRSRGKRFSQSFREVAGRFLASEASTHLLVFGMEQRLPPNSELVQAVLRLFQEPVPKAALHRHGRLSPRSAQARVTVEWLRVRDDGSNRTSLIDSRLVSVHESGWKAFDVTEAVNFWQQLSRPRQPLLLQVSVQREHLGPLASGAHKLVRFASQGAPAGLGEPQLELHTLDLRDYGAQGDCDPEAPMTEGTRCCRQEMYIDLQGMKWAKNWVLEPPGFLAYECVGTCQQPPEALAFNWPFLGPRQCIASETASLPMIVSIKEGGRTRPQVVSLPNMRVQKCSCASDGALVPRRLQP
Class Met: composite z-score at least -0.1. Class Not met: composite z-score below -0.1.

{"COMPOUND": "COc1ccc([Si](C)(C)[C@@H]2[C@@H](CCn3cc([C@H](O)c4ccccc4)nn3)O[C@]3(C(=O)N(Cc4ccc(N5C(=O)c6cccc7cccc5c67)cc4)c4ccccc43)[C@H]2C)cc1", "QUALITATIVE_LABEL": "Not met"}
{"COMPOUND": "COCCOC(=O)N1C(=O)[C@@]2(c3cc(C#CCCO)ccc31)[C@H](c1ccc(O)cc1)N1[C@H](c3ccccc3)[C@H](c3ccccc3)OC(=O)[C@H]1[C@@H]2C(N)=O", "QUALITATIVE_LABEL": "Not met"}
{"COMPOUND": "COC(=O)C[C@@H]1C[C@H](C)[C@]2(O1)C(=O)N(Cc1ccccc1)c1ccc(NC(C)=O)cc12", "QUALITATIVE_LABEL": "Met"}
{"COMPOUND": "COCCOC(=O)N1C(=O)[C@@]2(c3cc(C#CCC(C(=O)OC)C(=O)OC)ccc31)[C@H](c1ccccc1OCCO)N1[C@H](c3ccccc3)[C@H](c3ccccc3)OC(=O)[C@H]1[C@@H]2C(N)=O", "QUALITATIVE_LABEL": "Met"}
{"COMPOUND": "CN(C)C(=O)[C@]1(CCC(=O)OC(C)(C)C)N=C(c2ccc(OCCCO)cc2)O[C@@H]1c1ccccc1N=[N+]=[N-]", "QUALITATIVE_LABEL": "Not met"}
{"COMPOUND": "Cc1cc(C)c(C(O)C2C=CC3C(=O)N(C)C(=O)C3N2Nc2ccccc2)c(C)c1 (stereo unspecified)", "QUALITATIVE_LABEL": "Met"}

* * *

experiment: basal RPMI8226 mitochondrial membrane potential changes, profiling panel, cell-based, JC-1 fluorescence, 24 h, 100 nL compound (AID 1169); details: RPMI8226 myeloma, JC-1 mitochondrial potential fluorescence, higher = more signal; also: test concentration not given here
Measured z-score of individual entries

{"COMPOUND": "COc1ccc(C(O)C2C=CC3C(=O)N(c4ccccc4)C(=O)C3N2Nc2ccc([N+](=O)[O-])cc2)cc1OCc1ccccc1 (stereo unspecified)", "z-score": -0.215}
{"COMPOUND": "COCC(=C=CC[C@H](O)c1ccc(OCCO)cc1)C[C@H](O)c1cc(Cl)cc(Cl)c1O", "z-score": 0.04}
{"COMPOUND": "O=C1O[C@@H](c2ccccc2)[C@@H](c2ccccc2)N2[C@@H](c3ccc(OCCO)cc3)[C@]3(C(=O)Nc4ccc(C#CC5=CCCCC5)cc43)[C@@H](C(=O)O)[C@H]12", "z-score": -0.946}
{"COMPOUND": "C[N+](C)(C)CCCCCCNC(=O)[C@H]1C[C@H]2C(=O)N3CCC[C@H]3C(=O)N2[C@H]1c1ccc(O)cc1", "z-score": -0.655}
{"COMPOUND": "O=C1OCCC=C[C@H]2OC34C=CCN(Cc5ccccc5)C(=O)[C@H]3N(CCCCCCO)C(=O)[C@@H]4C12 (stereo partly specified)", "z-score": -0.0486}
{"COMPOUND": "C=CCNC(=O)[C@H]1[C@@H]2C(=O)O[C@@H](c3ccccc3)[C@@H](c3ccccc3)N2[C@@H](c2ccc(O)cc2)[C@]12C(=O)N(C(=O)OCCOC)c1ccc(C#CCCO)cc12", "z-score": -1.07}
{"COMPOUND": "COC(=O)[C@@]1(Cc2ccccc2)[C@H]2c3cc(C(=O)N4CCCC4)n(Cc4ccc(C)o4)c3C[C@H]2CN1C(=O)c1ccccc1", "z-score": -1.02}
{"COMPOUND": "CCCC[C@@H]1C[C@H]1[C@@H](NC(=O)c1ccc(-c2ccccc2)cc1)c1ccc(-c2ccccc2)cc1", "z-score": 0.196}
{"COMPOUND": "COC(=O)C[C@@H]1C[C@H](C)[C@]2(O1)C(=O)N(Cc1ccccc1)c1ccc(NC(C)=O)cc12", "z-score": -0.183}
{"COMPOUND": "[N-]=[N+]=NCc1ccccc1C[C@]1(C(=O)O)N=C(c2ccc(OCCCO)cc2)O[C@H]1c1ccccc1", "z-score": -0.179}
{"COMPOUND": "CCOc1cc(C(O)C2C=CC3C(=O)N(c4ccccc4)C(=O)C3N2Nc2ccc([N+](=O)[O-])cc2)ccc1O (stereo unspecified)", "z-score": -0.459}
{"COMPOUND": "O=C1[C@]2(CO)C=C(Br)[C@@H](C[C@@H]2c2ccccc2)[C@@]12CO2", "z-score": 0.278}
{"COMPOUND": "C=C[C@@H](COC(C)=O)N(Cc1ccc([N+](=O)[O-])cc1)S(=O)(=O)c1ccc(Br)cc1", "z-score": 0.667}
{"COMPOUND": "CN(C)C(=O)[C@@]1(CCC(=O)OC(C)(C)C)N=C(c2ccc(OCCCO)cc2)O[C@H]1c1ccccc1", "z-score": -1}
{"COMPOUND": "CC(=O)C1=CCC(c2ccccc2)N(S(=O)(=O)c2ccc(C)cc2)C1 (stereo unspecified)", "z-score": 0.697}
{"COMPOUND": "C=CC[C@@H](OC(=O)Nc1ccc(OC)cc1)c1ccc(O)c2ccccc12", "z-score": -0.992}
